Cited source: ChEMBL document CHEMBL4138102

Target: UniProt:P00533
Sequence (P00533 whole entry): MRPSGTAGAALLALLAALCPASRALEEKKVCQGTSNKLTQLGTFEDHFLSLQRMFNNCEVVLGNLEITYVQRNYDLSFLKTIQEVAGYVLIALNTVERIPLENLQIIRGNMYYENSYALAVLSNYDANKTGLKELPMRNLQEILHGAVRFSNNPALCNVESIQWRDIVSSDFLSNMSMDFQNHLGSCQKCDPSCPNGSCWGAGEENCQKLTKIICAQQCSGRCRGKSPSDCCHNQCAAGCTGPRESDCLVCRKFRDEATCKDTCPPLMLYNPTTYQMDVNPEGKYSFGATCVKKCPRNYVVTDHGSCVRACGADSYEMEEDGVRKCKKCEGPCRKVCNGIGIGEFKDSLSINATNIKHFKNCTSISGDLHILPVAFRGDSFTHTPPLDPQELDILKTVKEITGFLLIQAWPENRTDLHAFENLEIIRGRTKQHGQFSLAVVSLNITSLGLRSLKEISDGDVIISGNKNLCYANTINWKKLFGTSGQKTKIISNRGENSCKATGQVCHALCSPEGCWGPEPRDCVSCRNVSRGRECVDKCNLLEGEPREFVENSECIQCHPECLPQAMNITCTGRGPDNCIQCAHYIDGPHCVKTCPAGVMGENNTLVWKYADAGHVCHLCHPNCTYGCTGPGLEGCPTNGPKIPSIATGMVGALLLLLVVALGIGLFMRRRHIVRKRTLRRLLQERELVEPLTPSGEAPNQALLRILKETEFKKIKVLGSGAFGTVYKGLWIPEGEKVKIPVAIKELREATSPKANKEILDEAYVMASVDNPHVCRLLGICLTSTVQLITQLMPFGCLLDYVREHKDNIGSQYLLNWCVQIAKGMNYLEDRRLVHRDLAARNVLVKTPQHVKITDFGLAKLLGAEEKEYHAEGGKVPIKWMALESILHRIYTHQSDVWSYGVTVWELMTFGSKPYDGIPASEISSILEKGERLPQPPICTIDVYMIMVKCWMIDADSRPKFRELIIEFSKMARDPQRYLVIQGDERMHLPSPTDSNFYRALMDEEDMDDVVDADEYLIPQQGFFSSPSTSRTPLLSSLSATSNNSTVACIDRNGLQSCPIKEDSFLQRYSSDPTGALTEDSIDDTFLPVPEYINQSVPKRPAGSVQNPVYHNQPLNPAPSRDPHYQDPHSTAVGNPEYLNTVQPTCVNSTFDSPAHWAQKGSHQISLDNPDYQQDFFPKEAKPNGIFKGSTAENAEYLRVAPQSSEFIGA
Experiment: Inhibition of EGFR (unknown origin) at 10 uM after 15 mins by luminescence assay relative to control
quantityMeasured: inhibition (%)
I only need the number, in %, no unit after it.

Examples with their reported inhibition follow.
>  <smilesInput>
COc1cccc(NC(=O)Nc2ccc(Nc3ncnc4c3Cc3ccccc3N4)cc2)c1

>  <inhibition / %>
24.9

$$$$
>  <smilesInput>
O=C(Nc1ccccc1)Nc1ccc(Nc2ncnc3c2Cc2ccccc2N3)cc1

>  <inhibition / %>
32

$$$$
>  <smilesInput>
O=C(Nc1ccc(Nc2ncnc3c2Cc2ccccc2N3)cc1)c1ccccc1

>  <inhibition / %>
12.6

$$$$
>  <smilesInput>
O=C(Nc1cccc(Nc2ncnc3c2Cc2ccccc2N3)c1)c1cccc(F)c1

>  <inhibition / %>
24.5

$$$$
>  <smilesInput>
COc1cccc(C(=O)Nc2ccc(Nc3ncnc4c3Cc3ccccc3N4)cc2)c1

>  <inhibition / %>
35.4

$$$$

Item O=C(Nc1cccc(Nc2ncnc3c2Cc2ccccc2N3)c1)c1cccc(Cl)c1 has what recorded inhibition?
30.2

Item COc1ccc2c(Nc3ccc(NC(=O)Nc4ccccc4)cc3)c3ccccc3nc2c1 has what recorded inhibition?
21.4

Item Cc1cccc(C(=O)Nc2cccc(Nc3ncnc4c3Cc3ccccc3N4)c2)c1 has what recorded inhibition?
53

Item O=C(Nc1ccc(Nc2ncnc3c2Cc2ccccc2N3)cc1)c1cccc(C(F)(F)F)c1 has what recorded inhibition?
95.4
